Source of measurements: patent US6794396B2

MEASURED_ENDPOINT: melting point

Note to self: melting point recorded for COC(=O)c1c(C(F)F)nc(C(F)(F)F)c(C(=O)Sc2ccc(C(C)(C)C)cc2)c1CC(C)C was 60.5 to 62.5 °C

Measured melting point, COC(=O)c1c(C(F)F)nc(C(F)(F)F)c(C(=O)Sc2cc(Cl)ccc2Cl)c1CC(C)C : 112.5 to 113.5 °C

Looking up COC(=O)c1c(C(F)F)nc(C(F)(F)F)c(C(=O)Sc2cccc(OC)c2)c1CC(C)C , I see its melting point listed as 87 to 88.5 °C

Reported melting point ( COC(=O)c1c(C(F)F)nc(C(F)(F)F)c(C(=O)Sc2ccc(Cl)cc2)c1CC(C)C ) = 94 to 96.5 °C

Summary for this molecule, COC(=O)c1c(C(F)F)nc(C(F)(F)F)c(C(=O)Oc2ccc(Cl)cc2)c1CC(C)C : melting point is 81.5 to 82.5 °C

Consider COC(=O)c1c(C(F)F)nc(C(F)(F)F)c(C(=O)Oc2cc(OC)c(OC)c(OC)c2Cc2ccc(F)cc2)c1CC(C)C . Its measured melting point is 131.5 to 133.5 °C

// COC(=O)c1c(C(F)F)nc(C(F)(F)F)c(C(=O)Oc2ccccc2OC)c1CC(C)C : melting point value = 73 to 74.5 °C

Looking up COC(=O)c1c(C(F)F)nc(C(F)(F)F)c(C(=O)Sc2ccccc2OC)c1CC(C)C , I see its melting point listed as 100 to 102 °C

Lab note: COC(=O)c1c(C(F)F)nc(C(F)(F)F)c(C(=O)Sc2ccc(F)cc2Cc2ccc(F)cc2)c1CC(C)C gave melting point of 105 to 107 °C

Measured melting point of COC(=O)c1c(C(F)F)nc(C(F)(F)F)c(C(=O)Oc2ccccc2[N+](=O)[O-])c1CC(C)C : 102.5 to 105.5 °C

COC(=O)c1c(OC(=O)N(c2ccccc2)c2ccccc2)cc(C(F)(F)F)nc1C(F)(F)F has a reported melting point of 114 to 116 °C

Value of measured melting point for the entry COC(=O)c1c(C(F)F)nc(C(F)(F)F)c(C(=O)Oc2ccc(C)cc2C)c1CC(C)C : 95 to 99 °C

Recorded melting point (molecule COC(=O)c1c(C(F)F)nc(C(F)(F)F)c(C(=O)Sc2c(Cl)cccc2Cl)c1CC(C)C ): 109.5 to 112.5 °C

The molecule COC(=O)c1c(C(F)F)nc(C(F)(F)F)c(C(=O)Sc2ccc(SC)cc2)c1CC(C)C showed melting point equal to 112 to 114 °C

Measured melting point of COC(=O)c1c(C(F)F)nc(C(F)(F)F)c(C(=O)Oc2cc(C(C)(C)C)cc(C(C)(C)C)c2)c1CC(C)C : 100 to 103.5 °C

====

Give IC50 for every item shown.
# TARGET_SYSTEM: CETP (Homo sapiens)
# Construct: made in house; host or cells: CHO cells (serum-free conditioned medium)
# Sequence (P11597 18-493): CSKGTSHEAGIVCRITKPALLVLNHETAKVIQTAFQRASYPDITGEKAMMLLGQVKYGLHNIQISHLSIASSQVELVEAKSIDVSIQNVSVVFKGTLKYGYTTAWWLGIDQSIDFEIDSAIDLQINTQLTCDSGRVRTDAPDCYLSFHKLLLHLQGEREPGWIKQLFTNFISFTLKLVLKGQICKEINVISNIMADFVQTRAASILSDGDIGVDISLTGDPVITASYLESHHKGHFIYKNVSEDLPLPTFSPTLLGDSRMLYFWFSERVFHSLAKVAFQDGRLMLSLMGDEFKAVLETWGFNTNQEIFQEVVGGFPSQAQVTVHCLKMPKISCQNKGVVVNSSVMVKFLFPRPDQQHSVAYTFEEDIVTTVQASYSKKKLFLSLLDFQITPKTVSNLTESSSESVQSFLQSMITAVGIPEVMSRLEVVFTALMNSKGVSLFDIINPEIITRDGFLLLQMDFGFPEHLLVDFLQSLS
# TEST_NAME: CETP activity in vitro: transfer of [3H]CE from HDL donor to LDL acceptor particles
# Type: biochemical
# CONDITIONS: 50% inhibition of [3H]CE transfer from HDL to LDL, 2 hours at 37° C.; read-out: IC50(μm)
Note: unit µM is implicit; provide only the numeric part.

COC(=O)c1c(C(F)F)nc(C(F)(F)F)c(N=C=S)c1CC(C)C [Compound 18] has a reported IC50 of 35

The compound listed as COC(=O)c1c(C(F)F)nc(C(F)(F)F)c(COC(=O)c2ccccc2)c1CC1CC1 [Compound 41] shows IC50 equal to 50

Item: COC(=O)c1c(C(F)F)nc(C(F)(F)F)c(C(OC)c2ccns2)c1CC(C)C (centres unmarked) [Compound 34] | IC50: 45

IC50 in this record for COC(=O)c1c(C(F)F)nc(C(F)(F)F)c(CCl)c1CC(C)C [Compound 83] : 80

IC50 reported for this compound COC(=O)c1c(C(F)F)nc(C(F)(F)F)c(C(=O)Oc2ccc(C)cc2C)c1CC(C)C [Compound 177] : 70

Memo: COC(=O)c1c(C(F)F)nc(C(F)(F)F)c(C(=O)Sc2ccc(C(C)(C)C)cc2C(C)(C)C)c1CC(C)C [Compound 155] , reported IC50: 50

IC50 reading for COC(=O)c1c(C(F)F)nc(C(F)(F)F)c(S)c1CC(C)C [Compound 7] : 8.75

Per the record, COC(=O)c1c(OCc2ccccc2)cc(C(F)(F)F)nc1C(F)(F)F [Compound 37] has IC50 of 45

====

Hi there, I'd appreciate the recorded pIC50 for every entry that follows.
# TARGET_SYSTEM: CETP (Homo sapiens, UniProt P11597)
# Construct: made in house; host or cells: CHO cells (serum-free conditioned medium)
# TEST_NAME: CETP activity in vitro: transfer of [3H]CE from HDL donor to LDL acceptor particles
# Assay type: biochemical
# CONDITIONS: IC50, Table 7, compounds of formula T-7
pIC50 here: minus log base 10 of the concentration, concentration in moles per litre.

pIC50 of COC(=O)c1c(C(F)F)nc(C(F)(F)F)c(SCc2cccc(OC)c2)c1CC(C)C [Compound 231] , assay on CETP (Homo sapiens, UniProt P11597), is 4.30

Noted pIC50 for COC(=O)c1c(C(F)F)nc(C(F)(F)F)c(SCc2cccc(Br)c2)c1CC(C)C [Compound 229] , tested on CETP (Homo sapiens, UniProt P11597): 4.30

====

Exercise: for every item that follows, state its recorded IC50.
# TARGET_SYSTEM: CETP (Homo sapiens, UniProt P11597)
# Construct: made in house; host or cells: CHO cells (serum-free conditioned medium)
# Sequence (P11597 18-493): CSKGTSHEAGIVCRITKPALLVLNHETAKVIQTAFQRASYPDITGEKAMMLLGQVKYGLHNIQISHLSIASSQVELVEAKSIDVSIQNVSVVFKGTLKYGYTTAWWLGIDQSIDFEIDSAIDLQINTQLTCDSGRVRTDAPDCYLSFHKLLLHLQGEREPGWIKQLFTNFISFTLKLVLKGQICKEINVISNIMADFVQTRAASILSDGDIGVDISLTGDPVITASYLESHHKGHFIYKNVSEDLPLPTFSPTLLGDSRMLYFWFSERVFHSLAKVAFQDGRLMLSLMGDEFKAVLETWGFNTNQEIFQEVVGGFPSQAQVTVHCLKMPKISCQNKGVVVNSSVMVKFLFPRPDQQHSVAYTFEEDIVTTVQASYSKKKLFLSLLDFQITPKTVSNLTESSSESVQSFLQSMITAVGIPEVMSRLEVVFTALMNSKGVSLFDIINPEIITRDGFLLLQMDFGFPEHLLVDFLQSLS
# TEST_NAME: CETP activity in vitro: transfer of [3H]CE from HDL donor to LDL acceptor particles
# Assay type: biochemical
# CONDITIONS: Table 8; read-out: IC50
Quick note: give the figure in µM, leave out the unit.

IC50 reading for CCOC(=O)c1c(C(F)(F)F)nc(C(F)F)c(C(F)c2ccc3ccccc3c2)c1-c1ccccc1 (stereo not shown) : 70

Lab note: CC(C)CC(O)c1c(C(F)F)nc(C(F)(F)F)c(C(=O)c2ccc(C(F)(F)F)cc2)c1-c1ccc(F)cc1 (stereo not shown) gave IC50 of 19

IC50 reported for this molecule CC(C)c1ccc(C(F)c2c(C(F)(F)F)nc(C(F)F)c(CO)c2-c2ccccc2)cc1 (stereo not shown) : 60

Sample CCOC(=O)c1c(C(F)(F)F)nc(C(F)F)c(C(F)c2ccc(Cl)cc2)c1-c1ccc(F)cc1 (stereo not shown) [Compound 250] ; IC50 observed: 40

====

# TARGET_SYSTEM: CETP (Homo sapiens, UniProt P11597)
# Construct: made in house; host or cells: CHO cells (serum-free conditioned medium)
# TEST_NAME: CETP activity in vitro: transfer of [3H]CE from HDL donor to LDL acceptor particles
# Type: biochemical
# CONDITIONS: Table 8; read-out: IC50
Define the label as yes when IC50 is strictly less than 30 µM and as no in all remaining cases.

Threshold test, IC50 < 30 µM: O=Cc1c(C(F)F)nc(C(F)(F)F)c(C(=O)c2ccc(Cl)cc2)c1-c1ccccc1 [Compound 293]
yes

Strictly below 30 µM in IC50? CCOC(=O)c1c(C(F)(F)F)nc(C(F)F)c(CN2CCCC2)c1-c1ccc(F)cc1 [Compound 294]
no

Problem: For the compound O=C(c1ccc(Cl)cc1)c1c(C(F)(F)F)nc(C(F)F)c(CO)c1-c1ccccc1 [Compound 258] , is IC50 under 30 µM?
yes

Consider the compound OCc1c(C(F)(F)F)nc(C(F)F)c(C(O)c2ccc3ccccc3c2)c1-c1ccccc1 (centres unmarked) [Compound 280] . Is its IC50 strictly less than 30 µM?
no

Lab log: compare recorded IC50 with 30 µM; is it strictly lower for CC(C)c1ccc(C(=O)c2c(C(F)(F)F)nc(C(F)F)c(CO)c2-c2ccccc2)cc1 [Compound 263] ?
no

Please check: IC50 for OCc1c(C(F)F)nc(C(F)(F)F)c(COCc2ccccc2)c1-c1ccc(F)cc1 [Compound 281] , strictly under 30 µM or not?
no

Please let me know if O=Cc1c(C(F)F)nc(C(F)(F)F)c(C(=O)c2ccc3ccccc3c2)c1-c1ccccc1 [Compound 286] shows IC50 below 30 µM.
yes
